- Test system: PC12 cells
- Procedure Text: Serum starvation-induced apoptosis in PC12 cells, cell viability
- Assay type: cell-based
- Reported Conditions: Rattus norvegicus, PC-12; 10 μM compound; serum starvation-induced apoptosis, PC12 cells; read-out: % Viability 10 μM
The entries below are paired with their reported viability at 10 µM.
Respond with the bare value in %.

Examples with answers:
{"Compound": "CCOC(=O)Nc1ccc(NCc2cccc(C(F)(F)F)c2)nc1N [NK-16-3]", "Readout Name": "viability at 10 µM", "Observed": 86.9}
{"Compound": "CC(Cl)OC(=O)Nc1ccc(NCc2ccc(F)cc2)nc1N (stereo not drawn) [NK-21-1]", "Readout Name": "viability at 10 µM", "Observed": 91.7}
{"Compound": "CCOC(=O)Nc1ccc(NCc2ccc(F)cc2)nc1N [NK-1-4, reference compound]", "Readout Name": "viability at 10 µM", "Observed": 81.5}

Challenge: Entry Nc1ccc(N(Cc2ccc(F)cc2)C(=O)OCc2ccccc2)cc1N [NK-22-6] : reported viability at 10 µM = ?
Response given: 74.5

Challenge: Entry Nc1nc(NCc2ccc(F)cc2)ccc1NC(=O)OCc1ccccc1 [NK-10-1] : reported viability at 10 µM = ?
Response given: 92.7

Challenge: Entry C=CCOC(=O)Nc1ccc(NCc2cccc(C(F)(F)F)c2)nc1N [NK-16-6] : reported viability at 10 µM = ?
Response given: 92

Challenge: Entry COC(=O)Nc1ccc(NCc2cccc(C(F)(F)F)c2)nc1N [NK-16-4] : reported viability at 10 µM = ?
Response given: 97.8

Challenge: Entry C=CCOC(=O)Nc1ccc(NCc2ccc(F)cc2)nc1N [NK-12-1] : reported viability at 10 µM = ?
Response given: 82.2

Challenge: Entry CCOC(=O)Nc1ccc(NCc2ccc(Cl)cc2)nc1N [NK-4-3] : reported viability at 10 µM = ?
Response given: 86.5

Challenge: Entry C=CCOC(=O)Nc1ccc(NCc2ccc(Cl)cc2)nc1N [JG-4-5] : reported viability at 10 µM = ?
Response given: 70.2

Challenge: Entry COC(=O)Nc1ccc(NCc2ccc(F)cc2)nc1N [NK-3-1] : reported viability at 10 µM = ?
Response given: 72.2

Challenge: Entry CCOC(=O)Nc1ccc(NCc2cc(C(F)(F)F)cc(C(F)(F)F)c2)nc1N [NK-17-3] : reported viability at 10 µM = ?
Response given: 78.5

Challenge: Entry CCOC(=O)Nc1ccc(NCc2ccc(C)cc2)cc1N [JG-32-3] : reported viability at 10 µM = ?
Response given: 77.9

Challenge: Entry CC(C)COC(=O)Nc1ccc(NCc2ccc(F)cc2)nc1N [NK-8-1] : reported viability at 10 µM = ?
Response given: 89.7

Challenge: Entry CCCOC(=O)Nc1ccc(NCc2ccc(F)cc2)cc1N [NK-30-2] : reported viability at 10 µM = ?
Response given: 84.6

* * *

The entries below are paired with their reported viability at 0.3 µM.
- Tested on: PC12 cells
- Procedure Text: Etoposide-induced apoptosis in PC12 cells, cell viability
- Type: cell-based
- Reported Conditions: Rattus norvegicus, PC-12; 0.3 μM compound; etoposide-induced apoptosis, PC12 cells
Respond with the bare value in %.

{"Molecule": "CCOC(=O)Nc1ccc(NCc2cc(F)cc(C(F)(F)F)c2)nc1N", "Test System": "PC12 cells", "Readout Name": "viability at 0.3 µM", "Observed": 64.7}

Challenge: Entry CCOC(=O)Nc1ccc(NC(C)c2ccccc2)nc1N (stereo not drawn) : reported viability at 0.3 µM = ?
Response given: 56

Challenge: Entry CCOC(=O)Nc1ccc(NCc2ccc(F)cc2)nc1N [NK-1-4, reference compound] : reported viability at 0.3 µM = ?
Response given: 64.4

Challenge: Entry `CC(C)(C)OC(=O)Nc1ccc(NCc2ccc(F)cc2)nc1N` : reported viability at 0.3 µM = ?
Response given: 47.6

Challenge: Entry `CCOC(=O)Nc1ccc(NCc2ccccc2C(F)(F)F)nc1N` : reported viability at 0.3 µM = ?
Response given: 72.4

Challenge: Entry `C#CCOC(=O)Nc1ccc(NCc2ccc(F)cc2)nc1N` : reported viability at 0.3 µM = ?
Response given: 57.5
